Examples of compounds with documented Activity follow.
molecular target: Delta-type opioid receptor (Rattus norvegicus); test: Displacement of [3H]naltrindole from rat delta opioid receptor expressed in C6 cells; format: cell-based
// return numeric value only (unit: nM, not printed)

Oc1ccc2c3c1O[C@H]1c4oc5ccccc5c4C[C@@]4(O)[C@@H](C2)N(CC2CC2)CC[C@]314 0.037

Q: What value of Activity has been reported for the following compound? `C=CCN1C[C@H](C)N([C@H](c2ccc(C(=O)N(CC)CC)cc2)c2cccc(O)c2)C[C@H]1C`
Ans: 0.45

Q: I'd like to know its Activity. The compound in question is `CN1CC[C@]23c4c5ccc(O)c4O[C@H]2c2[nH]c4ccccc4c2C[C@@]3(O)[C@H]1C5`
Ans: 6.5

Q: For `CC(C)[C@H](NC(=O)[C@H](CC(=O)O)NC(=O)[C@H](Cc1ccccc1)NC(=O)[C@@H](C)NC(=O)[C@@H](N)Cc1ccc(O)cc1)C(=O)N[C@H](C(=O)NCC(N)=O)C(C)C` , what is its reported Activity?
Ans: 81

* * *

molecular target: Delta-type opioid receptor (Rattus norvegicus); experiment: Displacement of [3H]naltrindole from rat delta opioid receptor expressed in C6 cells; format: cell-based
Square brackets hold non-standard residues; d marks the D form. Peptide text beside a SMILES is read from it. * marks the point of attachment. Tyr(Nα,Nα-allyl2) = C=CCN(CC=C)[C@@H](Cc1ccc(O)cc1)C(=O)*; Aib = CC(C)(N)C(=O)O
measurementLabel: log10(Activity) (log10 of the value in nM)
The figures below represent log10 of Activity, where Activity is stated in nM.

Worked cases, log10(Activity) given:
molecule	subjectOfTest	log10(Activity)
CN1CC[C@]23c4c5ccc(O)c4O[C@H]2C(=O)C2(Cc4ccccc4C2)C[C@@]3(O)[C@H]1C5	Delta-type opioid receptor (Rattus norvegicus)	0.92
CC(C)C[C@H](NC(=O)[C@H](Cc1ccccc1)NC(=O)CNC(=O)[C@@H](CO)NC(=O)[C@@H](N)Cc1ccc(O)cc1)C(=O)N[C@H](C(=O)O)[C@@H](C)O	Delta-type opioid receptor (Rattus norvegicus)	1.97
C=CCN1C[C@H](C)N([C@H](c2ccc(C(=O)N(CC)CC)cc2)c2cccc(OC)c2)C[C@H]1C	Delta-type opioid receptor (Rattus norvegicus)	1.78

Q: Bench note: what log10(Activity) did `O=C1/C(=C/c2ccccc2)C[C@@]2(O)[C@H]3Cc4ccc(O)c5c4[C@@]2(CCN3CC2CC2)[C@H]1O5` show?
Ans: -1.10

Q: I'd like to know its log10(Activity). The molecule in question is CC1(C)SSC(C)(C)C(NC(=O)[C@@H](N)Cc2ccc(O)cc2)C(=O)NCC(=O)N[C@@H](Cc2ccc(Cl)cc2)C(=O)NC1C(=O)O (stereo in doubt)
Ans: 2.13

Q: Which value of log10(Activity) has been reported for C=CCN(CC=C)[C@@H](Cc1ccc(O)cc1)C(=O)NC(C)(C)C(=O)NC(C)(C)C(=O)N[C@@H](Cc1ccccc1)C(=O)N[C@@H](CC(C)C)C(=O)O ({Tyr(Nα,Nα-allyl2)}-[Aib][Aib]FL-OH) in the records?
Ans: 1.57

* * *

target: Delta-type opioid receptor (Rattus norvegicus); assay: Agonist activity at rat delta opioid receptor expressed in C6 cells assessed as stimulation of [35S]GTP-gamma-S binding relative to BW373U86; assay type: functional, cell-based
Square brackets hold non-standard residues; d marks the D form. Peptide text beside a SMILES is read from it. * marks the point of attachment. Tyr(Nα,Nα-allyl2) = C=CCN(CC=C)[C@@H](Cc1ccc(O)cc1)C(=O)*; Aib = CC(C)(N)C(=O)O
Label TRUE when Activity is at or above 0.1; anything below gets FALSE.

Observe how each entry below is paired with its result.
compound	assignedLabel
CN1CC[C@]23c4c5ccc(O)c4O[C@H]2C(=O)C2(Cc4ccccc4C2)C[C@@]3(O)[C@H]1C5	TRUE
Oc1ccc2c3c1O[C@H]1c4[nH]c5ccccc5c4C[C@@]4(O)[C@@H](C2)N(CC2CC2)CC[C@]314	FALSE
C=CCN1C[C@H](C)N([C@H](c2ccc(C(=O)N(CC)CC)cc2)c2cccc(OC)c2)C[C@H]1C	TRUE
C=CCN(CC=C)[C@@H](Cc1ccc(O)cc1)C(=O)NC(C)(C)C(=O)NC(C)(C)C(=O)N[C@@H](Cc1ccccc1)C(=O)N[C@@H](CC(C)C)C(=O)O ({Tyr(Nα,Nα-allyl2)}-[Aib][Aib]FL-OH)	FALSE
CC(C)[C@H](NC(=O)[C@H](CC(=O)O)NC(=O)[C@H](Cc1ccccc1)NC(=O)[C@@H](C)NC(=O)[C@@H](N)Cc1ccc(O)cc1)C(=O)N[C@H](C(=O)NCC(N)=O)C(C)C	TRUE
CC1(C)SSC(C)(C)C(NC(=O)[C@@H](N)Cc2ccc(O)cc2)C(=O)NCC(=O)N[C@@H](Cc2ccc(Cl)cc2)C(=O)NC1C(=O)O (stereo in doubt)	TRUE
CC(C)C[C@H](NC(=O)[C@H](Cc1ccccc1)NC(=O)CNC(=O)[C@@H](CO)NC(=O)[C@@H](N)Cc1ccc(O)cc1)C(=O)N[C@H](C(=O)O)[C@@H](C)O	TRUE

Q: Assess whether reported Activity for `CN1CC[C@]23c4c5ccc(O)c4O[C@H]2c2[nH]c4ccccc4c2C[C@@]3(O)[C@H]1C5` sits at 0.1 or higher.
Ans: TRUE
